B1: HDV Ribozyme (parent)
chain: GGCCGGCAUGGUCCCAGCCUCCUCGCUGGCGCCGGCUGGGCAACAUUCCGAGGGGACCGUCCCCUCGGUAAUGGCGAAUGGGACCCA

variants of: B1; assay: self-cleavage, relative activity (ratio to wild type); higher = more cleavage; co-transcriptional
QUANTITY: self-cleavage
Numbers only.

The cases that follow already have their self-cleavage on record.
1) C3U U47C = 0.564
2) C21G A43C = 0
3) U12A G53U = 0.318
4) G6A A8G = 0.554
5) C49U A78U = 0.437

Go through the items and report each one's self-cleavage.
1. U27G C44G
2. G50A A83C
3. C22G C24G
4. G2U C57G
5. A42G G80C

// result
1. 0.598
2. 0.525
3. 0.0339
4. 0.109
5. 0.364
